Catalogue of growth inhibition readings, one per entry.
test: NCI Yeast Anticancer Drug Screen. Data for the cln2 rad14 strain (AID 165);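 further: 0% = growth equal to vehicle treated cultures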; details: S. cerevisiae cln2 rad14 strain, hits give high values; at 50.0 µM unless noted
This is part of a sample that, as a whole, favours compounds with a hit. Of some 79,000 tested, about 15% had one in any assay.
Observable: growth inhibition (%)

>>> reported_measurement("O=c1oc(-c2ccccc2)nc2c1sc1nc(-c3ccccc3)oc(=O)c12")
79.8
>>> reported_measurement("O=[N+]([O-])c1ccc(/C(=C\\c2ccc(-c3ccccc3)o2)S(=O)(=O)c2ccccc2)o1")
23.6
>>> reported_measurement("Cn1cc(C(=O)c2ccccc2)cc(C(=O)c2ccccc2)c1=O")
1.5
>>> reported_measurement("O=C(CCl)NNC1=Nc2ccc(Cl)cc2SC1")
0.6
>>> reported_measurement("O=C(Nc1nccs1)c1ccccc1F")
-53.3
>>> reported_measurement("Cc1[nH]c2c(C)ccc(C)c2c(=O)c1Br")
-16.7
>>> reported_measurement("CCN(CC)CCN(C(=O)C(C)(C)C)c1ccccc1N")
-18.6
>>> reported_measurement("Cc1ccc(CC2CC(=O)NC2=O)cc1 (stereo not drawn)")
2.15
>>> reported_measurement("COc1ccccc1NC(=O)Oc1c(C(C)C)cccc1C(C)C")
-1.1
>>> reported_measurement("O=C1OC(c2ccccc2)Cc2ccccc21 (stereo not drawn)")
4.55
>>> reported_measurement("COc1ccc(/C=C2\\N=C3N(Cc4ccccc4)C=C(N)N3C2=O)cc1")
-6.55
>>> reported_measurement("Cc1cc(=O)[nH]c2[nH]c(=O)ccc12")
-6.35
>>> reported_measurement("c1ccc(Cc2cncc(Cc3ccccc3)c2)cc1")
-58.6
>>> reported_measurement("CC(=O)[CH-]C(=O)c1ccccc1.CC(=O)[CH-]C(=O)c1ccccc1.CC(C)CCCC(C)[C@H]1CCC2[C@@H]3CCC4C[C@@H]([O-])CC[C@]4(C)C3CC[C@@]21C.CC(C)CCCC(C)[C@H]1CCC2[C@@H]3CCC4C[C@@H]([O-])CC[C@]4(C)C3CC[C@@]21C.Cl.[Ti+4] (stereo partly drawn)")
-12.1
>>> reported_measurement("CCCCCCCCCCCC")
-25.9
>>> reported_measurement("CCc1n[nH]c(=O)n1NC(=O)c1ccccc1C(=O)O")
20.6
>>> reported_measurement("O=C(CCl)Oc1ccc2ccccc2c1")
8.25
>>> reported_measurement("CC1CC(=O)CC(C)(C)N1 (stereo not drawn)")
-2.4
>>> reported_measurement("COc1cc(OC)c2c(c1)C(C)(C)CCC2(C)C")
-23.4
>>> reported_measurement("COc1cc(Nc2cnc3cc(C(F)(F)F)ccc3n2)cc(OC)c1OC")
12.2
>>> reported_measurement("CC(C)=C1C2CCC1C(CO)C2CO (stereo not drawn)")
-102
>>> reported_measurement("Cc1ccc(N(C)S(=O)(=O)c2ccccc2[N+](=O)[O-])cc1")
12.1
>>> reported_measurement("Cc1nn2c(nnn2CCO)c1-c1ccccc1")
-10.6
>>> reported_measurement("C/C(=N\\NS(=O)(=O)c1ccc(C)cc1)c1cccs1")
4.2
>>> reported_measurement("CCOC(=O)C(CCc1ccccc1)(NC(C)=O)C(=O)OCC")
-4.65
>>> reported_measurement("COC1CCC2(C)C(CCC3C4CCC(OC(C)=O)C4(C)CCC32)O1 (stereo not drawn)")
-6.7
>>> reported_measurement("Oc1c(CN2CCOCC2)ccc(CN2CCOCC2)c1O")
4.55
>>> reported_measurement("CC(C)CCCC(C)C1CCC2C3CC=C4CC(OC(=O)Nc5ccc(S(=O)(=O)NC6CCCCC6)cc5)CCC4(C)C3CCC12C (stereo not drawn)")
-38.1
>>> reported_measurement("S=c1[nH]nc(-c2n[nH]c3ccccc23)o1")
-51.3
>>> reported_measurement("Cc1c(Cl)cccc1NC(=O)COc1ccc(Cl)cc1")
-3.7
>>> reported_measurement("Nc1ccccc1SC1CC(=O)N(c2ccc3c(c2)OCO3)C1=O (stereo not drawn)")
16.4
>>> reported_measurement("CCC[n+]1nc2ccccc2c(=Nc2ccccc2[N+](=O)[O-])[n-]1")
7.8
>>> reported_measurement("CC(=C/c1ccccc1)/C=C1/NC(=S)NC1=O")
-2.7
>>> reported_measurement("CCO[C@@H]1OC(=O)[C@H]2C(c3ccccc3)=NO[C@@H]12")
7.55
>>> reported_measurement("CSc1nc(C)cc(Nc2ccc(O)c(CN3CCCCC3)c2)n1")
10.4
>>> reported_measurement("NC1CC(c2ccccc2)NC(c2ccccc2)C1 (stereo not drawn)")
-8.5
>>> reported_measurement("COc1cccc(N)c1N")
4.6
>>> reported_measurement("Cc1nc2c(cnn2C)c(=O)n1C(C)C")
-6.5
>>> reported_measurement("CC(=O)OCC1C2C=CC(C2)C1COC(C)=O (stereo not drawn)")
-47.1
>>> reported_measurement("Cn1ccnc1C(O)(c1nccn1C)c1nccn1C")
19.1
>>> reported_measurement("COc1cc2c(cc1OC)C1Cc3ccccc3CCN1CC2 (stereo not drawn)")
-23.8
>>> reported_measurement("Cc1cc(C(=O)O)cc(C)c1N(C)C=O")
2.35
>>> reported_measurement("Cc1ccc(S(=O)(=O)ONNc2nccc3ccccc23)cc1")
-16.8
>>> reported_measurement("COc1cc(Cc2nccc3cc(OC)c(OC)cc23)c(C(C)=O)cc1OC")
14.1
>>> reported_measurement("O=C1CN(c2ccccc2)C(=O)CN1NCNN1CC(=O)N(c2ccccc2)CC1=O")
4.35
>>> reported_measurement("O=S(=O)(N/N=C1\\CC2CCC1C2)c1ccccc1 (stereo not drawn)")
27.8
>>> reported_measurement("COC(=O)c1ccccc1OC")
6.75
>>> reported_measurement("COc1ccc(C2c3cc4c(cc3C(O)C3CCC(=O)N23)OCO4)cc1 (stereo not drawn)")
-1.25

Values compiled from PubChem BioAssay (NCI).
